Structures can show the parent of a compound that is named as a salt.
Quantity kind: melting point

Could you share which melting point value was measured for c1c[nH]c(-c2ccc(C34CCCN(CC3)C4)nn2)n1 (stereo not drawn) (as salt: HBr) ?
290 to 292 °C

Could you share which melting point value was measured for Clc1ccc(C23CCCN(CC2)C3)nn1 (racemic) (as salt: HCl) ?
234 to 235 °C

Could you share which melting point value was measured for c1cc(-c2ccc(C34CCCN(CC3)C4)nn2)co1 (racemic) ?
140 to 141 °C

Could you share which melting point value was measured for c1n[nH]cc1-c1ccc(C23CCCN(CC2)C3)nn1 (stereo not drawn) (as salt: HBr) [20] ?
221 to 223 °C

Could you share which melting point value was measured for c1cncc(-c2ccc(C34CCCN(CC3)C4)nn2)c1 (racemic) ?
131 to 133 °C

Could you share which melting point value was measured for c1n[nH]cc1-c1ccc(C23CCCN(CC2)C3)nn1 (stereo not drawn) (as salt: HBr) [22] ?
295 to 297 °C

Could you share which melting point value was measured for c1cc(-c2ccc(C34CCCN(CC3)C4)nn2)co1 (stereo not drawn) (as salt: HCl) ?
226 to 228 °C

Could you share which melting point value was measured for Cc1csc(-c2ccc(C34CCCN(CC3)C4)nn2)c1 (racemic) [Compound 3] ?
139 to 140 °C

Could you share which melting point value was measured for c1nc(-c2ccc(C34CCCN(CC3)C4)nn2)c[nH]1 (stereo not drawn) (as salt: HCl) [18] ?
271 to 273 °C

Could you share which melting point value was measured for COc1ccc(-c2ccc(C34CCCN(CC3)C4)nn2)cc1 (racemic) (as salt: HCl) [Compound 7] ?
229 to 231 °C

Could you share which melting point value was measured for c1c[nH]c(-c2ccc(C34CCCN(CC3)C4)nn2)c1 (stereo not drawn) ?
207 to 209 °C

Could you share which melting point value was measured for c1coc(-c2ccc(C34CCCN(CC3)C4)nn2)c1 (racemic) (as salt: HCl) [Compound 8] ?
274 to 275 °C

Data origin: patent US8557819B2
